Biological target: T1, human TIGIT over-expressed on cells (human, UniProt Q495A1 22-244)
T1 construct: also called CHO-K1/human TIGIT cells; CHO cells expressing human TIGIT
T1 sequence: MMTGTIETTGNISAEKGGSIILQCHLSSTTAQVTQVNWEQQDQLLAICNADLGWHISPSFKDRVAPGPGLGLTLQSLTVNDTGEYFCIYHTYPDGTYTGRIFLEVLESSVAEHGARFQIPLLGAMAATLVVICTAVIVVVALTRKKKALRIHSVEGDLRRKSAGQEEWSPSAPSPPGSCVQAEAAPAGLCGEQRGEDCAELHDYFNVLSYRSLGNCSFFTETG
Assay: FACS, CHO-K1 cells over-expressing human TIGIT
quantity-kind: Bottom (best-fit)
I'd appreciate a reply containing only the number, no unit.

Check out these entries, answers already filled in.
121C2F10B5 (antibody, V domains shown, Mouse monoclonal antibody; also called mouse anti-human TIGIT monoclonal antibody 121C2F10B5) VH: EVQLVESGGDLVKPGGSLKLSCAASGFTFSTYGMSWVRQTPDKRLEWVATISSGGSYTYYPDSVKGRFTISRDNAKNTLYLQMSSLKSEDTAMYYCARQVHYFYAMDYWGQGTSVTVSS VL: DIQMTQSPASLSVSVGETVTITCRASENIYSNLAWYQQKQGKSPQVLVYAATNLADGVPSRFSGSRSGTQYSLKINSLQSEDFGSYYCQHFWDNAYTFGGGTKLEIK
14.2
100C4E7D11 (antibody, V domains shown, Mouse monoclonal antibody; also called mouse anti-human TIGIT monoclonal antibody 100C4E7D11) VH: EVMLVESGGGLVKPGGSLKLSCAASGFTFSFYTMSWVRQTPEKRLEWVATISSGGGSTYYSDSVKGRFTISRDNAKNNLYLQMTSLRSEDTALYYCSRSLPVDYWGQGTTLTVSS VL: QIVLTQSPAIMSASLGERVTMTCTASSSVSSTYLHWYQQKPGSSPKLWIYSTSNLASGVPARFSGSGSGTSYSLTISSMEAEDAATYYCHLYHHSPYTFGGGTKLEIK
14
16F10H12C11 (antibody, V domains shown, Mouse monoclonal antibody; also called mouse anti-human TIGIT monoclonal antibody 16F10H12C11) VH: EVLLQQSGPELVKPGASVKIPCKASGYTFTDYNIDWVKQSHGKSLEWIGDINPNTGGTIYNQKFKGKATLTVDKSSSTAYMELRSLTSEDTAVYYCARRWLLLVYAVDYWGQGTSVTVSS VL: QIVLTQSPAIMSASPGEKVTISCSASSSVTYMYWYQQKAGSSPKPWIYRTSNLASGVPARFGGSGSGTSYSLTISSMEAEDAATYYCQQYHSFPPTFGGGTKLEIK
6.83

Q: Tell me Bottom (best-fit) reported for 11D8E12A4 (antibody, V domains shown, Mouse monoclonal antibody; also called mouse anti-human TIGIT monoclonal antibody 11D8E12A4) VH: EVLLQQSGPELVKPGASVKIPCKASGYTFTDYNMDWVKQSHGKSLEWIGDINPNNGGTIYNQKFKGKATLTVDKSSSTAYMELRSLTSEDTAVYYCARRWLLLVYTMDYWGQGTSVTVSS VL: QIVLTQSPAIMSASPGEKVTISCSASSSVSYMYWYQQKPGSSPKPWIYRTSNLASGVPARFSGSGSGTSYSLTISSMEAEDAATYYCHQYHNYPPTFGGGTKLEIK
Result: 8.3

Q: Tell me Bottom (best-fit) reported for 83G6H11C12 (antibody, V domains shown, Mouse monoclonal antibody; also called mouse anti-human TIGIT monoclonal antibody 83G6H11C12) VH: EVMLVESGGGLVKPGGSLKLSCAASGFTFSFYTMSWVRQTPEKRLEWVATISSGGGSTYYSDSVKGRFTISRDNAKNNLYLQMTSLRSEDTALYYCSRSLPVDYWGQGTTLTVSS VL: QIVLTQSPAIMSASLGERVTMTCTASSSVSSSYLHWYQQKPGSSPKLWIYSTSNLASGVPARFSGSGSGTSYSLTISSMEAEDAATYYCHLYHHSPYTFGGGTKLEIK
Result: 9.57

Ref: patent US20210095028A1
